Experiment: RPMI8226 myeloma cell viability, profiling panel, resazurin fluorescence, basal, 24 h, PK04 Diversity Set (AID 1180);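 also: RPMI8826 multiple myeloma cell line at 5000 cells per well; test concentration not given here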
Conditions: higher = more signal
ASSAY_ENDPOINT: z-score
Kindly provide the number alone.

Sample answers from the record:
{"MOLECULE": "COCCOC(=O)N1C(=O)[C@@]2(c3ccccc31)[C@H](C(=O)Nc1nc3ccccc3s1)[C@H]1C(=O)O[C@H](c3ccccc3)[C@H](c3ccccc3)N1[C@@H]2c1ccccc1OCCO", "z-score": -0.236}
{"MOLECULE": "O=C(NCC(F)(F)F)[C@@H]1c2ccccc2C(=O)N(Cc2cc(C(F)(F)F)cc(C(F)(F)F)c2)[C@H]1c1ccc(CO)cc1", "z-score": 1.1}
{"MOLECULE": "CCCCC=C[C@@H](NC(=O)C(C)(C)C)c1ccccc1", "z-score": -3.59}

Turning now to a further record.
Request: Quick check: z-score of CN1C(=O)C2CC=C(C3=CCO[C@@H]3[C@H]3CCCN3S(=O)(=O)c3ccccc3[N+](=O)[O-])CC2C1=O (some centres undefined) ?
Response: 0.0213
